# system tested: human ether-à-go-go-related gene (hERG) potassium channel (human);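 further: peak tail current of the secondary pulse compared with the same well before compound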
# Sequence (Q12809 whole entry, looked up): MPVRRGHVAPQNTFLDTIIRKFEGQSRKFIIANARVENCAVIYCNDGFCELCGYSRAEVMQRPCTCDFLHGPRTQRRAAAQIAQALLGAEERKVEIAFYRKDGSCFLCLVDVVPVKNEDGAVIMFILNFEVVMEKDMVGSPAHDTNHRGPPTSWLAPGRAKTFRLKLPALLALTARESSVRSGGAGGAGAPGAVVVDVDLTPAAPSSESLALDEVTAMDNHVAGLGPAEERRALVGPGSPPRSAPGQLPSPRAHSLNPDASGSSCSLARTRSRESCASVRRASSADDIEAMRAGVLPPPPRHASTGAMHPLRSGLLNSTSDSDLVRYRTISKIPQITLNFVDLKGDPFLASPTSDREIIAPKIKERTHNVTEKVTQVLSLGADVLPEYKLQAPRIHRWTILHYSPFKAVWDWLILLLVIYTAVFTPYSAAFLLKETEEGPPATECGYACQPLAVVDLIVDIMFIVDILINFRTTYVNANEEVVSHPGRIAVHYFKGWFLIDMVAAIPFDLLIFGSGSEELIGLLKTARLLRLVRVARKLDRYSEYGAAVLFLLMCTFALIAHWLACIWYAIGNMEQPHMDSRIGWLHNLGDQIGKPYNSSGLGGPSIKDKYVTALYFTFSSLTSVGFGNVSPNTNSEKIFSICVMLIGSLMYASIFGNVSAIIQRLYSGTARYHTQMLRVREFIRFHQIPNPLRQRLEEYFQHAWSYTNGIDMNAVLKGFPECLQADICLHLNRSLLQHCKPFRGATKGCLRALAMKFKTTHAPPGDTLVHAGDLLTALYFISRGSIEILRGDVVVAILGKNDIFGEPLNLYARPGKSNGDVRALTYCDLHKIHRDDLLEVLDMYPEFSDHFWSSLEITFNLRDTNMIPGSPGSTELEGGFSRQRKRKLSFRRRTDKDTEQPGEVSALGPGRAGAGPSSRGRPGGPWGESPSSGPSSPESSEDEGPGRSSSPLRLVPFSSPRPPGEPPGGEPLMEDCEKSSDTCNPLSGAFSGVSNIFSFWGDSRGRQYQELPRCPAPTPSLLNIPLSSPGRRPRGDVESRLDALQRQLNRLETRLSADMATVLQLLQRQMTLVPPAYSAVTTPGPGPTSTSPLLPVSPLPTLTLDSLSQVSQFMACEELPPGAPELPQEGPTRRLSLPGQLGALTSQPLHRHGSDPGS
# experiment: primary screen, population patch clamp on CHO cells stably expressing hERG; higher = less effect of the substance
The whole screen tested about 310,000 compounds, of which about 14,000 (4.5%) showed an effect of 50% or more. The effect is printed as a negative number. For the sample, strong results were picked, then their nearest neighbours and some compounds at random.
Threshold check on hERG current change (%, negative = inhibition) at 10uM: at or above -50% gives 1, strictly below gives -1.

Form field: hERG current change (%, negative = inhibition) at 10uM at least -50%? Entry: Cc1ccccc1CN1C(=O)c2ccccc2Sc2ccc(C(=O)NCCN3CCOCC3)cc21
-1

Form field: hERG current change (%, negative = inhibition) at 10uM at least -50%? Entry: CCN1C(=O)c2ccccc2Sc2ccc(C(=O)NCCCN3CCOCC3)cc21
1

Form field: hERG current change (%, negative = inhibition) at 10uM at least -50%? Entry: COc1ccc(NC(=S)N(CCCN2CCCCC2)Cc2cccs2)cc1
-1

Form field: hERG current change (%, negative = inhibition) at 10uM at least -50%? Entry: COc1ccc(-c2ccc(=O)n(Cc3ccc([N+](=O)[O-])cc3)n2)cc1
-1

Form field: hERG current change (%, negative = inhibition) at 10uM at least -50%? Entry: O=[N+]([O-])c1cccc(CN2CCN(c3cccc4[nH]ccc34)CC2)c1
1

Form field: hERG current change (%, negative = inhibition) at 10uM at least -50%? Entry: Cc1cccn2c(=O)c3cc(C(=O)O)n(C)c3nc12
1

Form field: hERG current change (%, negative = inhibition) at 10uM at least -50%? Entry: COc1ccccc1N1CCN(Cc2ccc(OC)c3ccccc23)CC1
1

Form field: hERG current change (%, negative = inhibition) at 10uM at least -50%? Entry: COc1ccc(-c2ccc(=O)n(Cc3ccccc3)n2)cc1
1

Form field: hERG current change (%, negative = inhibition) at 10uM at least -50%? Entry: COc1ccc(N=Cc2c(O)n(-c3ccc(OC)cc3)c(=O)c3ccccc23)cc1
1

Form field: hERG current change (%, negative = inhibition) at 10uM at least -50%? Entry: CN(C)CC/C=C1\c2ccccc2Sc2cc(F)c(Cl)cc21.Cl
1

Form field: hERG current change (%, negative = inhibition) at 10uM at least -50%? Entry: c1ccc2c(CN3CCCCCCC3)c[nH]c2c1
1

Form field: hERG current change (%, negative = inhibition) at 10uM at least -50%? Entry: Cc1cccn2c(=O)c3cc(C(=O)N(C)C)n(C)c3nc12
1

Form field: hERG current change (%, negative = inhibition) at 10uM at least -50%? Entry: COc1ccc(-c2ccc(=O)n(Cc3cccc([N+](=O)[O-])c3)n2)cc1
1

Form field: hERG current change (%, negative = inhibition) at 10uM at least -50%? Entry: COc1ccccc1N1CCN(Cc2c[nH]c3ccccc23)CC1
-1

Form field: hERG current change (%, negative = inhibition) at 10uM at least -50%? Entry: c1ccc2c(CN3CCOCC3)c[nH]c2c1
1

Form field: hERG current change (%, negative = inhibition) at 10uM at least -50%? Entry: c1cnc(N2CCN(Cc3c[nH]c4ccccc34)CC2)nc1
1

Form field: hERG current change (%, negative = inhibition) at 10uM at least -50%? Entry: CC1CCN(CCc2nc3cc(NC(=O)COc4ccc(Cl)cc4)ccc3n2C)CC1
-1

Form field: hERG current change (%, negative = inhibition) at 10uM at least -50%? Entry: Fc1ccc(N2CCN(Cc3c[nH]c4ccccc34)CC2)cc1
-1

Form field: hERG current change (%, negative = inhibition) at 10uM at least -50%? Entry: CCCCn1nc(C(=O)NCC(=O)Nc2c(C)cccc2C)c2ccccc2c1=O
-1

Form field: hERG current change (%, negative = inhibition) at 10uM at least -50%? Entry: Cc1ccc(CN2CCN(c3cccc4[nH]ccc34)CC2)cc1
-1

Form field: hERG current change (%, negative = inhibition) at 10uM at least -50%? Entry: COc1ccc(NC(=S)N(CCCN2CCOCC2)Cc2cn(C)c3ccccc23)cc1
1

Form field: hERG current change (%, negative = inhibition) at 10uM at least -50%? Entry: O=C(CCC(=O)OCC(=O)c1ccc([N+](=O)[O-])cc1)NC1CCCCC1
1

Form field: hERG current change (%, negative = inhibition) at 10uM at least -50%? Entry: Fc1ccccc1N1CCN(C2CCN(Cc3c[nH]c4ccccc34)CC2)CC1
-1

Form field: hERG current change (%, negative = inhibition) at 10uM at least -50%? Entry: CNC(=O)c1cc2c(=O)n3cccc(C)c3nc2n(C(C)C)c1=N
-1

Form field: hERG current change (%, negative = inhibition) at 10uM at least -50%? Entry: Cc1ccc(CN2C(=O)c3ccccc3Sc3ccc(C(=O)NCCCN4CCOCC4)cc32)cc1
1

Form field: hERG current change (%, negative = inhibition) at 10uM at least -50%? Entry: COc1ccc(NC(=S)N(CCCN2CCCC2)Cc2cccs2)cc1
1

Form field: hERG current change (%, negative = inhibition) at 10uM at least -50%? Entry: Cl.OCCN1CCN(CC/C=C2/c3ccccc3Sc3ccc(C(F)(F)F)cc32)CC1
1

Form field: hERG current change (%, negative = inhibition) at 10uM at least -50%? Entry: COc1ccccc1N1CCN(C(=O)CCc2c[nH]c3ccccc23)CC1
1
